# systemName: T1, Her4 on CHO cells (CHO-Her4) (UniProt Q15303 26-1308, limits assumed)
# T1 construct: whole, on cells
# T1 sequence (Q15303 26-1308 limits assumed): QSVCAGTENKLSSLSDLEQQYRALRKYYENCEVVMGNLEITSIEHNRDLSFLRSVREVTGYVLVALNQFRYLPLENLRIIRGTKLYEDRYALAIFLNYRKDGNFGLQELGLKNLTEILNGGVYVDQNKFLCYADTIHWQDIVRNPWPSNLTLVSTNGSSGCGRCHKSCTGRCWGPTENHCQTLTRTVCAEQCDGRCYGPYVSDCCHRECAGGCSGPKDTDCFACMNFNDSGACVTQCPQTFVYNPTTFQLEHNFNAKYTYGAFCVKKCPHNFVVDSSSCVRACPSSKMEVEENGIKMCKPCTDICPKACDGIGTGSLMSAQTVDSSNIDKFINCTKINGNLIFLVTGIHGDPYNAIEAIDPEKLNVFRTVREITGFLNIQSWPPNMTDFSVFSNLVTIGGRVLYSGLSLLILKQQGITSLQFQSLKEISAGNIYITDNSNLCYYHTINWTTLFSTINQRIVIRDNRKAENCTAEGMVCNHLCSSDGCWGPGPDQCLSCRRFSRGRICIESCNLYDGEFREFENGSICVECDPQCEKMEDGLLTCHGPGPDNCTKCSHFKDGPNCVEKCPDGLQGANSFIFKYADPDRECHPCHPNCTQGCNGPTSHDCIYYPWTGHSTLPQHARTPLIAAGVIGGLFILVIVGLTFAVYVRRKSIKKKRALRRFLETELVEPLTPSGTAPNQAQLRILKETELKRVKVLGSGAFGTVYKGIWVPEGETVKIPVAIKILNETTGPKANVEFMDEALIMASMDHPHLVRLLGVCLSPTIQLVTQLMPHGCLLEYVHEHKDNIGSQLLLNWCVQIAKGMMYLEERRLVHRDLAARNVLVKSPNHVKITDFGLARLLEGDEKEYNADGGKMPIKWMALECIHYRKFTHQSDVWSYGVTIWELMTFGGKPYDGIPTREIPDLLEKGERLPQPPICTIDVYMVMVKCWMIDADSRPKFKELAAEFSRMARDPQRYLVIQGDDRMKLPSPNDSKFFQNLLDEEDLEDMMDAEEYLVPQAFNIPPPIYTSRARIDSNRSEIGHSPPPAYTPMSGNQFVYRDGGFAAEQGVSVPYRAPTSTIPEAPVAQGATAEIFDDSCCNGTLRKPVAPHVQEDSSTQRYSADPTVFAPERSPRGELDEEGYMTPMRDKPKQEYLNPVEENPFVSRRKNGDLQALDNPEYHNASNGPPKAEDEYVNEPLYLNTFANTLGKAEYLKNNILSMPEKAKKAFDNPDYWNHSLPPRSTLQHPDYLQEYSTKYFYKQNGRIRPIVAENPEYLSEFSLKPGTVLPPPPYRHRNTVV
# runDescription: FACS on CHO-Her4 cells, purified IgG, R-PE anti-mouse IgG
# Method: CHO-Her2, CHO-Her4, CHO-EGFR cells were harvested and resuspended in PBS, 2% FBS at a concentration of approximately 1×10⁶/ml. Cells were stained with purified IgGs at 4° C. for 40 min. Cells were washed with 4 mL PBS, 2% FBS, then centrifuged at 1200 rpm for 10 minutes. Supernatant was removed. Cells were stained with R-PE conjugated anti-mouse IgG at 4° C. for 30 min. […] Cells were analyzed on a FACS Calibur (BD Biosciences) by collecting 20,000 events from gate 1.
attributeMeasured: binding result

PO-3H7-E3 (antibody, V domains shown, Purified mouse IgG from a hybridoma; also called PO-3H7-E3-HC; PO-3H7-E3-LC) VH: EVQLQQSGAELVKPGASVKISCKASGYSFTGYYMNWVKQSHGKSLEWIGNINPYYGGSNYNQKFKARATLTVDKSSSTAYMQLNSLTSEDSAVYYCARKGDLYYSMDYWGQGTSVTVSS VL: DIVMTQTPLSLPVSLGDQASISCRSSQSIVHSNGNTYLEWYLQKPGQSPKLLIYKVSNRFSGVPDRFSGSGSGTDFTLKISRVEAEDLGIYYCFQGSHVPPTFGGGTKLELKR = no binding
PO-1C9-C4 (antibody, V domains shown, Purified mouse IgG from a hybridoma; also called PO-1C9-C4-HC; PO-1C9-C4-LC) VH: QVQLQQPGSELVRPGASVKLSCKASGYTFTIFWIHWVKQRPGQGLEWIGNIYPGSGGTNYDEKFKSKATLTVDTFSSTAYMQLSSLTSEDSAVYYCTRWGTGKDYWGQGTTLTVSS VL: DIVLTQSPAIMSASPGEKVTMTCRARSSVSSSYLHWYQQKPGSSPKLWIYSTSNLALGVPARFSGSGSGTSYSLTISSVEAEDAATYYCQQYDSSPFTFGTGTKLEIKR = no binding
